system: recombinant human ACE-2 (human, UniProt Q9BYF1 18-740, limits assumed)
Sequence (Q9BYF1 18-740 limits assumed): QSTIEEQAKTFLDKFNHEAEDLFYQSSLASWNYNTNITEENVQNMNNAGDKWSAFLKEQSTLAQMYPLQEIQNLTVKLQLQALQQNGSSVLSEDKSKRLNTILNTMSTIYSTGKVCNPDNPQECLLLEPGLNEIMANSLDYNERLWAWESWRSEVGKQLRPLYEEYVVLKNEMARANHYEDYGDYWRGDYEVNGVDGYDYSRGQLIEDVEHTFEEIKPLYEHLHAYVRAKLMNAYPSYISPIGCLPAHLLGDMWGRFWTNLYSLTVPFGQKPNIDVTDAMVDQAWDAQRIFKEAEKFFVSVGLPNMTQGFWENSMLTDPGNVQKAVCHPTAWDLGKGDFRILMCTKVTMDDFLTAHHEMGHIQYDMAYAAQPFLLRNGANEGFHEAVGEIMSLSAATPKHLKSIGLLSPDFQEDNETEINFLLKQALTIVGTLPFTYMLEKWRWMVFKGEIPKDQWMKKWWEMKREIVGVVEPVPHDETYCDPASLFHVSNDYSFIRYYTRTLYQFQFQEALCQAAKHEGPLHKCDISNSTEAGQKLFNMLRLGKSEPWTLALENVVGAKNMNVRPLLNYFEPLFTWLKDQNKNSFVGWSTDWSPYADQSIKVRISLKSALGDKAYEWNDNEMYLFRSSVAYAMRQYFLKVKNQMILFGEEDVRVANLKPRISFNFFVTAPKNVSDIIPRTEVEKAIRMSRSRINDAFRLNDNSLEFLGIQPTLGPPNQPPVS
method: cell-based or functional assay
Bridges are numbered along the chain shown (N, C = ends).
readout.name: IC50 µM (ACE-2 cleavage of M-2195, fluorometric) (µM)

Before answering, review these 2 worked examples.
Ac-GSRGFCRDSSCSFPAPGEGGG-NH2 (disulfide 6-11 (inferred); also: oxidized) [DX-525]    1
Ac-AGSDWCGTWNNPCFHQGTEGGG-NH2 (disulfide 6-13 (inferred); also: oxidized) [DX-531]    0.5

a = Ac-GSRIGCRDSRCNWWAPGEGGG-NH2 (disulfide 6-11 (inferred); also: oxidized) [DX-524]
b = Ac-GDRLHCKPQRQSPWMKCQHLDPEGGG-NH2 (disulfide 6-17 (inferred)) [DX-512]
Prompt line: Short answer wanted: higher IC50 µM (ACE-2 cleavage of M-2195, fluorometric), a or b ? Output the label that corresponds to your choice.
Response line: a
